Hi there, I'd appreciate the recorded Population Healthy Nuclei (%) for every entry that follows.
Tested on: HEK-293T
Assay Text: Multiplex assay against HEK293T
Format: toxicity, cell-based
Condition: human, 48 h, 10 µM, compound concentration 10 uM, replicate 1
Numbers only, in %.

# example entries with known answers
Short answer for Cc1cc(C)c(S(=O)(=O)N(Cc2ccc(-c3cccc(S(C)(=O)=O)c3)cc2)Cc2ccc(C(F)(F)F)o2)c(C)c1 : Population Healthy Nuclei (%) was 60

Short answer for CN1CCC(=C2c3ccccc3CC(=O)c3sccc32)CC1.O=C(O)/C=C/C(=O)O [KETOTIFEN FUMARATE] : Population Healthy Nuclei (%) was 40

Short answer for Cl.O=c1c2cccn2c2ccccc2n1CCCN1CCC(c2ccc(Cl)cc2)CC1 : Population Healthy Nuclei (%) was 35

Alright, here's another molecule for you.
Short answer for CN1CCN(C(=O)C(C)(C)c2ccc(C(=O)Nc3cn4cc(-c5ccncc5)ccc4n3)cc2)CC1 : Population Healthy Nuclei (%) was 10
